Data provenance is DBAASP.

What follows is a record of MIC for Escherichia coli ATCC 25922.
Quick reminder: number only, in µM, skip the unit.

// known answers, use as guide
structure_as_smiles=CC(C)C[C@H](NC(=O)[C@H](Cc1c[nH]c2ccccc12)NC(=O)[C@H](CCCCN)NC(=O)[C@H](Cc1ccccc1)NC(=O)[C@H](CC(C)C)NC(=O)[C@H](Cc1c[nH]c2ccccc12)NC(=O)[C@H](CCCCN)NC(=O)[C@H](CC(C)C)NC(=O)[C@@H](N)Cc1ccccc1)C(=O)N[C@@H](CCCCN)C(=O)N[C@@H](CCCCN)C(N)=O subject_of_test="Escherichia coli ATCC 25922" meas_value=32.5
structure_as_smiles=CC(C)[C@H](NC(=O)[C@H](CC(=O)O)NC(=O)[C@H](CO)NC(=O)[C@H](CCCCN)NC(=O)[C@@H](N)Cc1c[nH]c2ccccc12)C(=O)N[C@@H](CCCN=C(N)N)C(=O)N[C@@H](CCCN=C(N)N)C(=O)N[C@@H](Cc1c[nH]c2ccccc12)C(=O)N[C@@H](CCCN=C(N)N)C(=O)N[C@@H](CO)C(=O)N[C@@H](CCCN=C(N)N)C(=O)N[C@@H](Cc1ccc(O)cc1)C(N)=O subject_of_test="Escherichia coli ATCC 25922" meas_value=64

As a next step, examine the compound that follows.
Problem: Provide the documented MIC with Escherichia coli ATCC 25922 as the system for "CC[C@H](C)[C@H](NC(=O)[C@H](CCCN=C(N)N)NC(=O)[C@H](CCCCN)NC(=O)[C@@H](NC(=O)[C@@H](NC(=O)[C@H](CCCN=C(N)N)NC(=O)[C@@H](N)CCCCN)[C@@H](C)CC)C(C)C)C(=O)N[C@@H](CCCCN)C(=O)N[C@@H](CC(=O)O)C(=O)N[C@@H](Cc1ccccc1)C(=O)N[C@@H](CC(C)C)C(=O)N[C@@H](CCCN=C(N)N)C(=O)O"
Solution: 1.25
